- testedSystem: T1, human IL-2Rβ (CD122 protein, Fc Tag) (27-239) (human, UniProt P14784 27-239)
- T1 construct: range 27-239; Bought protein; also called hu-IL-2Rβ subunit; IL-2Rβ subunit; not shown: Fc tag of the bought protein
- T1 sequence (looked up): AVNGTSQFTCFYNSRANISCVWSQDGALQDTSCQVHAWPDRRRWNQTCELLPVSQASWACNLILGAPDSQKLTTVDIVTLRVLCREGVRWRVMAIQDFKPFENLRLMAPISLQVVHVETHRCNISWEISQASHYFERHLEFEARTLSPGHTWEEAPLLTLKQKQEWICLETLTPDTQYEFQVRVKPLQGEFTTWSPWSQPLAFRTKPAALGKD
- testSummary: phage ELISA competition
pIC50: −log10 of the molar value.
measuredQuantity: pIC50

Which pIC50 is listed for WYPCWRAQLGELCDLVDLGSHL [SEQ ID NO 2747] ?
> 4.00

Input RVSYPCWLARLGELCDMDLEE [SEQ ID NO 2707]
> 4.00

And then AWDWYPCSVAALGEICDLDIQD [SEQ ID NO 2760] , what is it?
> 4.00

Do the same for RSGDKAFFPCWLAQLGDLCDLD [SEQ ID NO 2705] please
> 4.00

Taken from patent US20220119492A1.
